# melting point per record follows

Known melting point results, listed for orientation:
1. COC(=O)c1cccc(I)c1C(=O)NC(C)(C)CS(C)=O (stereo not given)
151 to 152 °C
2. CCOC(=O)C1(Nc2ccc(Oc3ccccc3)cc2)CC1
80 °C
3. CC(=O)OC[C@H]1O[C@@H]2[C@@H](Sc3ccc(Cl)cc3N2CCCN(C)C)[C@@H](OC(C)=O)[C@@H]1OC(C)=O
149 to 151 °C
4. CCN1C(=O)C(C)(C)C(=O)N(C)c2cc(CN(CCN3C(=O)CCc4ccccc43)Cc3cccnc3C)ccc21
130 to 131 °C
5. O=C1Nc2ccc(F)cc2Nc2sc3ccccc3c21
249 to 250 °C
6. COc1ccc(C(=O)Nc2ccccc2)cc1NS(=O)(=O)c1ccccc1Cl
107 to 109 °C
7. CC(=NNC(N)=O)c1ccc(NS(C)(=O)=O)c(Oc2ccc(F)cc2F)c1
187 to 189 °C
8. CC(C)(C)c1ccc(C=CC2=CC(c3ccc(C(C)(C)C)cc3)N(c3ccccc3)N2)cc1 (stereo not given)
188 to 192 °C

**Q:** So what's the measured melting point for this one? O=C(Nc1ccc2[nH]ccc2c1)c1ccc(F)cc1
**A:** 205 to 207 °C

**Q:** So what's the measured melting point for this one? OC/C=C/c1ccc(C(F)(F)F)cc1
**A:** 53 to 55 °C

These data points were gathered from a melting point compilation (Tetko et al.; mined from patent text by program, amines drawn as free bases though some values may be those of a salt).
